Biological target: T1, human CXCR5 (human, UniProt P32302 1-372)
T1 construct: whole, on cells; Always presented on cells; one entry is used for all cell lines; also called hCXCR5; C-X-C chemokine receptor type 5
T1 sequence (looked up): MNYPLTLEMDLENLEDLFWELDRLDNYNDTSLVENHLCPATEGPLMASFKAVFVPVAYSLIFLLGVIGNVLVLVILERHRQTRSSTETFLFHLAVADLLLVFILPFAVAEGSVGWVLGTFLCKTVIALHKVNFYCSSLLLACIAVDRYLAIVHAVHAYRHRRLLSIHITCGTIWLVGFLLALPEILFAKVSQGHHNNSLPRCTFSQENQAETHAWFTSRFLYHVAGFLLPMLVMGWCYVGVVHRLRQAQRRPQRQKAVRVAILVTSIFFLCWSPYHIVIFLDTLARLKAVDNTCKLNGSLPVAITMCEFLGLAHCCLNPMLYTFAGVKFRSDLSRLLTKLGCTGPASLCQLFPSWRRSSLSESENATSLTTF
Experiment: binding to DX002 cells expressing CXCR5
Metric Name: pEC50
Remember the convention: pEC50 equals -log10 of concentration in molar.

Prompt: Please look up its pEC50: HFB2-4hz42hG1DE (antibody, V domains shown, Humanized (VH10/VL6) in hG1DE format) VH: QVQLVQSGAEVKKPGASVKVSCKASGFSLTSYGVSWVRQAPGQGLEWMGVIWGDGSTNYAQKLQGRVTMTKDTSTSTAYMELRSLRSDDTAVYYCARVVYWGQGTLVTVSS VL: EIVMTQSPATLSVSPGERATLSCRSSKSLLHSNGKTYLYWFQQKPGQAPRLLIYRMSNLASGIPARFSGSGSGTEFTLTISSVQSEDVAVYYCMQHLEYPYTFGQGTKLEIK
Completion: 9.77

Prompt: # query: pEC50 of entry HFB2-4hz37hG1DE (antibody, V domains shown, Humanized (VH3/VL6) produced in hG1DE format (human IgG1, S239D/I332E)) VH: QVQLQESGPGLVKPSETLSLTCTVSGFSLTSYGVSWVRQPPGKGLEWIGVIWGDGSTNYNPSLKSRVTISKDTSKNQVSLKLSSVTAADTAVYYCARVVYWGQGTLVTVSS VL: EIVMTQSPATLSVSPGERATLSCRSSKSLLHSNGKTYLYWFQQKPGQAPRLLIYRMSNLASGIPARFSGSGSGTEFTLTISSVQSEDVAVYYCMQHLEYPYTFGQGTKLEIK
Completion: 10.00

Prompt: Given the entry HFB2-4hz38hG1DE (antibody, V domains shown, Humanized (VH3/VL7) in hG1DE format) VH: QVQLQESGPGLVKPSETLSLTCTVSGFSLTSYGVSWVRQPPGKGLEWIGVIWGDGSTNYNPSLKSRVTISKDTSKNQVSLKLSSVTAADTAVYYCARVVYWGQGTLVTVSS VL: DIVMTQSPDSLAVSLGERATINCRSSKSLLHSNGKTYLYWFQQKPGQSPKLLLYRMSNLASGVPDRFSGSGSGTDFTLTISSLQAEDVAVYYCMQHLEYPYTFGQGTKLEIK , report its measured pEC50.
Completion: 9.97

Prompt: What does the record list as pEC50 for HFB2-4hG1DE (antibody, V domains shown, Chimeric HFB2-4 in the DE scaffold: human IgG1 constant region with S239D/I332E; also called HFB2-4DE) VH: QVQLKESGPGLVAPSQSLSITCTVSGFSLTSYGVSWVRQPPGKGLEWLGVIWGDGSTNYHSGLISRLSISKDNSKSQVFLKLNSLQSDDTATYYCARVVYWGQGTLVTVSA VL: DIVMTQAAPSVPVTPGESISISCRSSKSLLHSNGKTYLYWFLQRPGQSPQLLLYRMSNLASGVPDRFSGSGSGTAFTLRISRVEAEDVGVYYCMQHLEYPYTFGGGTKLEIK ?
Completion: 9.73

# credit: patent US20240158517A1
